Quick reference: pIC50 of the listed items.
# target_under_test: EGFR kinase (Homo sapiens (Human), UniProt P00533)
# Sequence (P00533 25-1210): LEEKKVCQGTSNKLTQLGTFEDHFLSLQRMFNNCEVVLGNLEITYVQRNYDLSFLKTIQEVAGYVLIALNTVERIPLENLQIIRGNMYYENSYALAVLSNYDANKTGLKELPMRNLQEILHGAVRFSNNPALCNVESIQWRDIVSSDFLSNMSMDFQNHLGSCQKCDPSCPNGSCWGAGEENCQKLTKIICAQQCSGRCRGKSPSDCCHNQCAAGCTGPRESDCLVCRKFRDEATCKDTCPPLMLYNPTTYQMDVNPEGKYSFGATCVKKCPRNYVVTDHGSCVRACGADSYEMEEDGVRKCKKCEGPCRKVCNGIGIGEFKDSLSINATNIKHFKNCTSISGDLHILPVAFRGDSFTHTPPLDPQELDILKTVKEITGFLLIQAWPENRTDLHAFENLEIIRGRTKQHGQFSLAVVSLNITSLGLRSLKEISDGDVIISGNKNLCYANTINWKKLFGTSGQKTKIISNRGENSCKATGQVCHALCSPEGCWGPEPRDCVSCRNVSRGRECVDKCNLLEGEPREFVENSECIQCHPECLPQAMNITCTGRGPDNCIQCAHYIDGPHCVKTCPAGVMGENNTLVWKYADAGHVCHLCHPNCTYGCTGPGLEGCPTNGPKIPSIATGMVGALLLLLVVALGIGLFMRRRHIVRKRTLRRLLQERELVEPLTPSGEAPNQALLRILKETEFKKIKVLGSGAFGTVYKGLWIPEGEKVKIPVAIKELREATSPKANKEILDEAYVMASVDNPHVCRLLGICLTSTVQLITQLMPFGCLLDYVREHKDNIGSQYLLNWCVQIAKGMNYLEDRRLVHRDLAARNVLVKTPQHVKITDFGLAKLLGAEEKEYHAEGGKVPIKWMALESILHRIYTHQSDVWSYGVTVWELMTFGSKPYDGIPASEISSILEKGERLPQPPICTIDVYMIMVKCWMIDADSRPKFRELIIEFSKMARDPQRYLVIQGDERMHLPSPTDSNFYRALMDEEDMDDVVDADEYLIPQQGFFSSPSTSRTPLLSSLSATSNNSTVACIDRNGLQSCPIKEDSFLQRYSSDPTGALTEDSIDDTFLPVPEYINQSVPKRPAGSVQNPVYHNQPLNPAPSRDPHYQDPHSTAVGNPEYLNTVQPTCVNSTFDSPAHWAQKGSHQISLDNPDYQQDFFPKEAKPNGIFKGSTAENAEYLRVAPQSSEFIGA
# test_details: Inhibition of EGFR kinase activity (ULight-labeled JAK-1 (Tyr1023) peptide substrate)
# Type: biochemical
# protocol_conditions: EGFR kinase 0.35 nM, ATP 150 μM, 2 hours
pIC50: −log10 of the molar value.

- molecule: "O=C(/C=C/CN1CCCCC1)N1CCOc2c1ccc1ncnc(Nc3ccc(OCc4ccccn4)c(Cl)c3)c21"
  value_reported: "≥ 7.30"

## Input Bench note: what pIC50 did CN(C)C/C=C/C(=O)N1CCOc2c1ccc1ncnc(Nc3ccc(Oc4cccnc4)cc3)c21 show?
## Output 5.30 to 6.30

## Input Bench note: what pIC50 did Cc1cccc(Oc2ccc(Nc3ncnc4ccc5c(c34)OCCN5C(=O)/C=C/CN(C)C)cc2)c1 show?
## Output ≥ 7.30

## Input Bench note: what pIC50 did Cc1cc(Nc2ncnc3ccc4c(c23)OCCN4C(=O)/C=C/CN(C)C(C)C)ccc1Oc1ccn2ncnc2c1 show?
## Output 5.30 to 6.30

## Input Bench note: what pIC50 did CCN(CC)C/C=C/C(=O)N1CCOc2c1ccc1ncnc(Nc3ccc(Oc4ccccc4)cc3)c21 show?
## Output ≥ 7.30

## Input Bench note: what pIC50 did CN(C)C/C=C/C(=O)N1CCOc2c1ccc1ncnc(Nc3ccc(OCc4ccccn4)cc3)c21 show?
## Output 6.30 to 7.30

## Input Bench note: what pIC50 did COc1cccc(Oc2ccc(Nc3ncnc4ccc5c(c34)OCCN5C(=O)/C=C/CN(C)C)cc2)c1 show?
## Output ≥ 7.30

## Input Bench note: what pIC50 did Cc1ccc(F)c(Oc2ccc(Nc3ncnc4ccc5c(c34)OCCN5C(=O)/C=C/CN(C)C)cc2)c1 show?
## Output ≥ 7.30

## Input Bench note: what pIC50 did Cc1cc(Nc2ncnc3ccc4c(c23)OCCN4C(=O)/C=C/CN2CCCCC2)ccc1Oc1ccn2ncnc2c1 show?
## Output 6.30 to 7.30

## Input Bench note: what pIC50 did COc1ccccc1Oc1ccc(Nc2ncnc3ccc4c(c23)OCCN4C(=O)/C=C/CN(C)C)cc1 show?
## Output ≥ 7.30

## Input Bench note: what pIC50 did CN(C)C/C=C/C(=O)N1CCOc2c1ccc1ncnc(Nc3ccc(OCc4cccs4)cc3)c21 show?
## Output 6.30 to 7.30

## Input Bench note: what pIC50 did CC(Oc1ccc(Nc2ncnc3ccc4c(c23)OCCN4C(=O)/C=C/CN(C)C)cc1)c1ccccn1 (stereo not drawn) show?
## Output 6.30 to 7.30

## Input Bench note: what pIC50 did CN(C)C/C=C/C(=O)N1CCOc2c1ccc1ncnc(Nc3ccc(SCc4ccccc4)cc3)c21 show?
## Output ≥ 7.30

## Input Bench note: what pIC50 did CN(C)C/C=C/C(=O)N1CCOc2c1ccc1ncnc(Nc3ccc(Sc4ccc(F)cc4)cc3)c21 show?
## Output ≥ 7.30

## Input Bench note: what pIC50 did Cc1cc(Nc2ncnc3ccc4c(c23)OCCN4C(=O)/C=C/CN(C)C)ccc1Oc1ccn2ncnc2c1 show?
## Output 6.30 to 7.30

## Input Bench note: what pIC50 did COCCN(C)C/C=C/C(=O)N1CCOc2c1ccc1ncnc(Nc3ccc(Oc4ccn5ncnc5c4)c(Cl)c3)c21 show?
## Output 6.30 to 7.30

## Input Bench note: what pIC50 did O=C(/C=C/CN1CCCCC1)N1CCOc2c1ccc1ncnc(Nc3ccc(Oc4ccn5ncnc5c4)c(Cl)c3)c21 show?
## Output 6.30 to 7.30

## Input Bench note: what pIC50 did CC(Oc1ccc(Nc2ncnc3ccc4c(c23)OCCN4C(=O)/C=C/CN(C)C)cc1)c1cccc(F)c1 (stereo not drawn) show?
## Output 6.30 to 7.30

## Input Bench note: what pIC50 did O=C(/C=C/CN1CCOCC1)N1CCOc2c1ccc1ncnc(Nc3ccc(Oc4ccccc4)cc3)c21 show?
## Output ≥ 7.30

## Input Bench note: what pIC50 did Cc1cc(Nc2ncnc3ccc4c(c23)OCCN4C(=O)/C=C/CN2CCN(C)CC2)ccc1Oc1ccn2ncnc2c1 show?
## Output 6.30 to 7.30

## Input Bench note: what pIC50 did CN(C)C/C=C/C(=O)N1CCOc2c1ccc1ncnc(Nc3ccc(OCc4cccc(Cl)c4)cc3)c21 show?
## Output ≥ 7.30

## Input Bench note: what pIC50 did CN(C)C/C=C/C(=O)N1CCOc2c1ccc1ncnc(Nc3ccc(Oc4ccccc4F)cc3)c21 show?
## Output ≥ 7.30
